Experiment: Cytotoxicity against human L02 cells assessed as inhibition of cell growth by SRB assay
Assay type: toxicity, cell-based
pIC50: −log10 of the molar value.
experimental.endpoint: pIC50

given.smiles: COC1=CC(=O)C=C(C[C@]2(C)[C@H](C)CC[C@@H]3C(C)=CCC[C@@H]32)C1=O
test.result: < 4.52

given.smiles: COC1=CC(=O)C(O)=C(C[C@@]2(C)CC[C@]3(C)[C@@H](C)C(=O)CC[C@H]3[C@H]2C)C1=O
test.result: 5.12

given.smiles: CCCCOC1=CC(=O)C(O)=C(C[C@@]2(C)CC[C@]3(C)C(C)=CCC[C@H]3[C@H]2C)C1=O
test.result: 4.69

response.value for COC(=O)/C=C1/OC(=O)C(C[C@@]2(C)CC[C@]3(C)C(C)=CCC[C@H]3[C@H]2C)=C1O (field: pIC50) = < 4.52

Recorded result, COc1cc(O)cc2c1O[C@]1(C)CC[C@H]3C(C)(C)CCC[C@]3(C)[C@H]1C2 , pIC50: < 4.52

The measurements presented in this section are drawn from ChEMBL document CHEMBL5390294.
